Experiment: yeast display, Sf9 membrane polyspecificity reagent, FACS + sequencing; frameworks hold sequencing errors
Property Measured: polyreactivity (PSR sort gate)

Sequence Entry: QVQLVESGGALVQAGGSLRLSCAASGLIFYYYAMGWNRPAPGKERELVAAISGGGSTYYADSVKGRFTISRDNAKNTVYLQMNSLKPEDTAVYYCAASFRYPSWLYDYWGQGTQVTVSS
Reported Result: low polyreactivity
//
Sequence Entry: QVQLVESGGGLVQAGGSLRLSCAASGSTFSANAMGWYRQAPGKERELVAAITYRGGNTYYADSVKGRFTISRDNAKNTVYLQMNSLKPEDTAVYYCNRDLRVRYRRMKYGYWGQGTQVTVSS
Reported Result: low polyreactivity
//
Sequence Entry: KVQHVESGGGLVQAGGSLRLSCAASGLTFYTNAMGWYRQPPGKESEFVADITTSGGDTYYADSVKGRFTISRDNAKNTVYLQMNSLKPEDTAVYYCGEFWSYWGYGQYDYWGQGTQVTVSS
Reported Result: low polyreactivity

---

Assay: yeast display, Sf9 membrane polyspecificity reagent, FACS + sequencing; frameworks hold sequencing errors
Property Measured: polyreactivity (PSR sort gate)

Example results:
Sequence Entry: QVQLVESGVGLVQAGGSLRLSCAASGRIFYYNAMGWYRQAPGKVRELVASISWDASSTYYADSVKGRFTISRDNAKNTVYLQMNSLKPEDTAVYYCNKKHLYRQYDYWGQGTQVTVTS
Property Measured: polyreactivity (PSR sort gate)
Reported Result: low polyreactivity

Sequence Entry: QVQLQESGGGLVQAGGSLRLSCAASGYISHADEMGWYRQAPGLEHELVASISNGGSTNYADSVKGLFTISRDNAKNTEYLQLNSLKSEDTAVYYCAAWTGQVDIHYYWGQGTQVTVSS
Property Measured: polyreactivity (PSR sort gate)
Reported Result: low polyreactivity

Sequence Entry: QVQLVESGGGLVQAGGSLRLSCADSGRTFGGYAMGWYRQAPGKQRELVASITWSGGSTYYADSVKGRFTISRDNAKNNVYLQMNSLKPEDTAVYYCGARTYQSRSTRMDYWGQGTQVTVSS
Property Measured: polyreactivity (PSR sort gate)
Reported Result: low polyreactivity

Sequence Entry: QVQLVESGGGLVQAGGSLRLSCAASGRIFGNNAMGWYRQAPGKERELVAAITSGGSTNYADSVKGRFTISRDNAKNTVYLQMNSLKPEDTAVYYCAKRWVYKYRHYDYWGQGTQVTVSS
Property Measured: polyreactivity (PSR sort gate)
Reported Result: low polyreactivity

Sequence Entry: QVQLVESGGGLVQAGGSLRLICAASRFYTMGWYRQATVKERELVAAISWSGGDTYYADSVKGRFTISRDNAKNTVYLQMNSLKPEDTAVYYCAKKTIGSYVHEPFYYWGQGTQVTVSS
Property Measured: polyreactivity (PSR sort gate)
Reported Result: low polyreactivity

Sequence Entry: QVQIVESGGGLVQAGRSLRLSCAASGFIFFPYVMGWYRPAPVKERELVARITSGGGSTYYADSVKGRFSISRDNAKNTVYLEMYSLKPEDTAVYYCAARFRFPPSYDYWGQCTQVTVSS
Property Measured: polyreactivity (PSR sort gate)
Reported Result: high polyreactivity

Sequence Entry: QVQLVESGGGLVQAGGSLRLSCAASGSIFYYNAMGWYRQAPGTERELVAAITSSGGSTYYADSVKGRFTISRDNAKNTVYLQMNSLKPEDTAVYYCNADQDAYYLVYIATYDYWGQGTQVTVSS
Property Measured: polyreactivity (PSR sort gate)
Reported Result: low polyreactivity

Sequence Entry: QVQLVESGGGLVQAGGSLRLSCAASGFTFSFYSMGWSRQAPGKERELVAAITSRGTSTYYADSVKGRFTISRDNAKNTVYLQMNSLKPEDTAVYYCAKLLPRGQWPYDYWGQGTQVTVSS
Property Measured: polyreactivity (PSR sort gate)
Reported Result: high polyreactivity

// polyreactivity (PSR sort gate) lookup, sequence = QVQLVESGGGLVQAGGSLRLSCAATGRTFPAYAMGWYRQAPGKERELVAAITINGGSTYYADSVKGRFTISRDNAKNSVYLQMNSLKPEDTAVYYCAAYYASPRHGFWGQGTQVTVSS , result: low polyreactivity

Sample QVQLVESGGGLVQAGGSLRLSCAASGSTFEQYAMGWYRQAPGKERELVAAISGSGTRTYYADSVKGRFTISRDNAKNTVYLQMNSLKPEDTAVYYCAARFSYPAIHQAYYHWGQGTQVTVSS ; polyreactivity (PSR sort gate) observed: high polyreactivity

The sequence listed as QDQLVESGGGLVQAGGSLRLICAASGITFLVNAMGWYRQAPGKERELVAGITSGDSTNYADSVKGRFTISRDNAKNTVYLQMNSLKPEDTAVYYCATVLYVGSGGGGILWDDDYWGQGTQVTVSS shows polyreactivity (PSR sort gate) equal to low polyreactivity

Lookup result for QVQLVESGGGLVQAGGSLRLSCAASGITFFDYAMGWYRQAPGKERELVAAIDLSDGRTYYADSVKGRFTISRDNAKNTVYLQMNSLKPEDTAVYYCARQHEDYGYYWYYWYDYDYWGQGTQVTVSS ; measured polyreactivity (PSR sort gate): low polyreactivity

Please fill in: polyreactivity (PSR sort gate) reported for QVQLVESGGGLVQAGGSLRLSCAASGSIFTAYTMGWYRQAPGKERELVAAITERGGSTYYADSVKGRFTISRDNAKNTVYLQMNSLKPEDTAVYYCNAVWYFKPPPLYYIPYRQYDYWGQGTQVTVSS = low polyreactivity

Per the record, QVRLVESGGGLVQAGGSLRLSCAASGRILQVYAMGWYRQAPGKERELVAGIRSSGGRTYYADSVKGRFTISRDNAKNTVSLQMNSLKPEDTAVYYCAADQDWYGFVIGFDYWGQGTQVTVSS has polyreactivity (PSR sort gate) of low polyreactivity

Summary for this sequence, QVQLVESGGGLVQAGGSLRLSCAASGFTFSRYAMGWYRPAPGKERELVAAISTRGGRTYYADSVKGRFTISRDNAKNTVYLQMNSLKPEDTAVYYCAADATVGSSDYWGQGTQVTVSS : polyreactivity (PSR sort gate) is high polyreactivity

The sequence listed as QVQLVESGGGLVEAGGSLRLSCAASGSTFTYYAMGWFRPAPGKERELVAAISSSGTSTYYADSVKGRFTLSRDNEKNTVSLQLNSLKPEDPAVYYCAADYYHTRGEADYEYAYWGKGTQVTVSS shows polyreactivity (PSR sort gate) equal to low polyreactivity

---

Assay: yeast display, Sf9 membrane polyspecificity reagent, FACS + sequencing; frameworks hold sequencing errors
Property Measured: polyreactivity (PSR sort gate)

These solved cases illustrate the format of a correct answer.
Sequence Entry: QVQLVESGGGLVQAGGSLRLSCAASGRTFDLYAMGWYRQAPGKEREFVAAISWRGGRTYYADSVKGRFTISRDNAKNTVYLQMNSQKPEDTAVYYCAARTGATSRIRFDYWGQGTQVTVSS
Property Measured: polyreactivity (PSR sort gate)
Reported Result: low polyreactivity
--
Sequence Entry: QVQLVESGGGLVQAGGSLRLSSAASGFTFARYAMGWYRQAPGKERELVAAITFSGTRTYYADSVKGRFTISRDNAKNTVYLQMNSLKPEDTAVYYCAAVVQTKAYRKAVYYFSSYDYWGQGTQVTVSS
Property Measured: polyreactivity (PSR sort gate)
Reported Result: high polyreactivity
--
Sequence Entry: QVQLVESGGGLVQAGGSLRLSCAASGITFGVYARGWYRQAPGKEREFVADIDRTRGSTYADSVKGRFTISRDNAMNTVYLQMNSLKPEDTAVYYCAAGWGFRFYYWYWGQGTHVTVSS
Property Measured: polyreactivity (PSR sort gate)
Reported Result: high polyreactivity
--
Sequence Entry: QVQLVESGGGLVQAGGSLRLSCAASGYIFYGYAMGWYRQAHGKERELVAAITVRGGSTYYADSVKGRFTISRDNAKNTVYLQMNSLNPEDTAVYYWAAAPQFTVGVGYWGQGTQVTVSS
Property Measured: polyreactivity (PSR sort gate)
Reported Result: low polyreactivity
--
Sequence Entry: QVQLVESGGGLVQAGGSLRLSCAASGFTFDYYTMGWYRQAPGKEREFVAAITWNGGTTNYADSVKGRFTISRDNAKYTVYLQMNSLKPEDTAVYYCAATAYWYFSNDSGRSYDYWGQGTQVTVSS
Property Measured: polyreactivity (PSR sort gate)
Reported Result: low polyreactivity

Now for another entry.
Summary for this sequence, QVQLVESGGGLVQAGGSLLLSCAASGLIFSWNAMGWYRQAPGKERELVASISYSGGRTYYADSVKGRFTISRDNAKNTVYLQMNSLKPEDTAVYYCAADTNATTDPEMDYWGQGTQVTVSS : polyreactivity (PSR sort gate) is low polyreactivity

---

Experiment: yeast display, Sf9 membrane polyspecificity reagent, FACS + sequencing; frameworks hold sequencing errors
Property Measured: polyreactivity (PSR sort gate)

Solved entries:
Sequence Entry: QVQLVESGGGLVQAGGSLRLSCAASGFIFRYYAMGWYRQAPGKERELVAAITSRGSSTYYADSVKGRFTISRDNAKNTVYLQMNSLKPDDTAVYYCAARLRGDYVRYDYWGQGTQVTVSS
polyreactivity (PSR sort gate): high polyreactivity
//
Sequence Entry: QVQLVESGGGYVQAGGSLRLSCAASGSTFRYYAMGWYRQAPGKEREFVASITQSGGSTYYADSVMGRFTISRDNAKNTVYLQMISLKPEDTAVYYCAADVYSWVYLMDYWGQGTQVTVSS
polyreactivity (PSR sort gate): low polyreactivity
//
Sequence Entry: QVKLEESGGGLVQAGGSLRLTCAASGSTFKYNAMGWYRQAPGKERELVAAISSGGSTNYADSVKGRFTISRDNAMNTVYLQMISLKPEDTAVYYCNADYTYVTAWYYYWGQGTQVTVSS
polyreactivity (PSR sort gate): high polyreactivity
//
Sequence Entry: QVQLVESGGGLVQAGGSLRLSCAASGRIFTYYTMGWYRQAPGKERELVAANDSGSSTYYADSVKGRFTISRDNAKNTVYLQMNSLKPEDTAVYYCAADGVRSLVRRGYWFDYWGQGTQVTVSS
polyreactivity (PSR sort gate): low polyreactivity
//
Sequence Entry: QVQLVESGGGLVQAGRSLRLSCAASGSTSERYDMGWYRQAPGKERELVATITWSGGDTHYADSVKGRFTISRDNAKNSVYLQLNSLKPEDTAVYYCAAEYTFVWGMWYDYWGQGTQVTVSS
polyreactivity (PSR sort gate): low polyreactivity

Reported polyreactivity (PSR sort gate) of QVQLVESGGGLVQAGGSLRLSCAASGRTFSYYAMGWYRQAPGKERSLVAAISWSGGRTYYADSVKGRFTISRDNAKNTVYLQMNSLKPEDTAVYYCAARYVYPYWYGDYYWGQGTQVTVSS : low polyreactivity

For reference, reported polyreactivity (PSR sort gate) for QVQLVESGGGLVQAGGSLRLSCAASGLTFGDYTMGWYRQAPGKERELVAAITGSGASTYYADSVKGRFTISRDNAQNTGYLQMNSLKPEDTAVYYCDAERTPSYRAYDYWGQGTQVTVSS stands at low polyreactivity

For reference, reported polyreactivity (PSR sort gate) for QVQLVESGGGLVQAGGSLLLSCAASGSIFGSNAMGWYTQATVKERELVAVITNGGRTYYADSVKGLFTISRDNAKNTVYLQMNSLKPEDTAVYYCAASRVYGWYGSYSTYGSVGQGTQVTVSS stands at high polyreactivity
